# target.desc: NK-3 receptor (Homo sapiens, UniProt P29371)
# Construct: total cellular membranes used
# Sequence (P29371 whole entry): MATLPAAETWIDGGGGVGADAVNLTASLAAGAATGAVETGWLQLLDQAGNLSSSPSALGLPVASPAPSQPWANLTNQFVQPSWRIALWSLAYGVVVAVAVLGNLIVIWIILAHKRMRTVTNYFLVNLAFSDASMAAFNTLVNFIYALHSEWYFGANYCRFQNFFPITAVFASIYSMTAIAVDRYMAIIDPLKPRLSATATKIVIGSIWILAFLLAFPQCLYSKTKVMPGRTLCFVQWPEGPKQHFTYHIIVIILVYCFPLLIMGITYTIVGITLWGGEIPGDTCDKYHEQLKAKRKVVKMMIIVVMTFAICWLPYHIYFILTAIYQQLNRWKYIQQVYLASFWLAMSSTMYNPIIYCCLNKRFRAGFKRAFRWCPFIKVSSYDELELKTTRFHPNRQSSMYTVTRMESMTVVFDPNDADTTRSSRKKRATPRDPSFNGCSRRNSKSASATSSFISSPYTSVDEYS
# experiment.description: NK3 receptor binding assay (displacement of 125I-methylPhe7-neurokinin B)
# condition.context: membranes of Chinese hamster ovary cells expressing cloned human NK-3 receptor; 0.15 nM 125I-methylPhe7-neurokinin B; 2 hours at 4° C.
Reported pIC50 by item:
Friendly reminder that pIC50 comes from taking -log10 of the concentration in mol/L.

CC[C@H](NC(=O)c1cc(-c2ccccc2)nc2ccsc12)c1ccccc1 7.10
CC[C@H](NC(=O)c1cc(-c2ccccc2)nc2ncccc12)c1ccccc1 7.00

get_value(item= CC[C@H](NC(=O)c1cc(-c2ccccc2)nc2ccncc12)c1ccccc1 , readout=pIC50) returns 7.30

Data provenance is patent US7037922B1.
